Would you kindly list Endothelial Cell Proliferation Activity (HUVEC, 3H-thymidine) for each of these binders?
system_tested: KDR receptor on HUVEC cells (human, UniProt P35968 20-1356)
Sequence (P35968 20-1356): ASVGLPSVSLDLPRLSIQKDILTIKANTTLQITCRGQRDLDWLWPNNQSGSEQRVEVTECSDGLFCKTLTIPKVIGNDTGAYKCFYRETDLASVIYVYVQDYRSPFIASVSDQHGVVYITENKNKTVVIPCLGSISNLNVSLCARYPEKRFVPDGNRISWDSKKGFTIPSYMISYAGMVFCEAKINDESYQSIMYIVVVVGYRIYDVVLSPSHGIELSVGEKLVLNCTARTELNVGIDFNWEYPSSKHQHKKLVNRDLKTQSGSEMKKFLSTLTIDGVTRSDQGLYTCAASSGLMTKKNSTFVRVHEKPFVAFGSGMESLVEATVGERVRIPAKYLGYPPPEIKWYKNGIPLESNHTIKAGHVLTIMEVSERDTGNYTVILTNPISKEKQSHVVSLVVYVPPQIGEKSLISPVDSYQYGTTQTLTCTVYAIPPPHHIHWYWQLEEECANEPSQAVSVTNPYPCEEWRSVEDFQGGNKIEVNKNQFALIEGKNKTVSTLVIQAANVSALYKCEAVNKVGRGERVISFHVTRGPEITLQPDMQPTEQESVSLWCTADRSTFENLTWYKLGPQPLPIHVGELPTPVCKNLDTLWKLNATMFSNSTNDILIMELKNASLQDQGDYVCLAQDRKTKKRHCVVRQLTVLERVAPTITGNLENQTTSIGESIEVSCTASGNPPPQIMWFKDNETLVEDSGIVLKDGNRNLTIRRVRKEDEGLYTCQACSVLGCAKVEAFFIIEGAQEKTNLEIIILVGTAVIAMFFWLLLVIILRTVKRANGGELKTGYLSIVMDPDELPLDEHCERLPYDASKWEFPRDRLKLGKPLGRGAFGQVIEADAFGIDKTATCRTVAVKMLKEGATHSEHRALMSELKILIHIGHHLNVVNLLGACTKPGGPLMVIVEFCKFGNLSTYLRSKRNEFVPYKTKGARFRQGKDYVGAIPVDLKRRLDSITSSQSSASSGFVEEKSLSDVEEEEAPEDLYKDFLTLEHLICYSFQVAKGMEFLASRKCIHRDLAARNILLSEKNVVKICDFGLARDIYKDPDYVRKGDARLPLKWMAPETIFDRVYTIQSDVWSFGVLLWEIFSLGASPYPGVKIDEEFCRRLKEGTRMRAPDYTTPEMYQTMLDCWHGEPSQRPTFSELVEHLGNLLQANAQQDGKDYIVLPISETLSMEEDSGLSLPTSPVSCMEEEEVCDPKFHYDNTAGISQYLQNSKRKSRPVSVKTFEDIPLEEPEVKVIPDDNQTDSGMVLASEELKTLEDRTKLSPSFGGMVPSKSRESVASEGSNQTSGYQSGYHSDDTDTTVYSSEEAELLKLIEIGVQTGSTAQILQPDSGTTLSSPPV
method_description: cell-based or functional assay

Note to self: Endothelial Cell Proliferation Activity (HUVEC, 3H-thymidine) recorded for LK-VRB-2s* (ligand, human, UniProt P15692-4 27-135, looked up) APMAEGGGQNHHEVVKFMDVYQRSYCHPIETLVDIFQEYPDEIEYIFKPSCVPLMRCGGCCNSEMRECVPTEESNITMQIMRIKPHQGQHIGEMSFLQHNKCECRPKKD was 0.1 ratio to native VEGF (8-109)

For this binder ( LK-VRB-1s* (ligand, human, UniProt P15692-4 27-135, looked up) APMAEGGGQNHHEVVKFEDVLRRSSCHPIETLVDIFQEYPDEIEYIFKPSCVPLMRCGGCCNDEGLECVPTEESNITMQIMRIKPHQGQHIGEMSFLQHNKCECRPKKD ), measured Endothelial Cell Proliferation Activity (HUVEC, 3H-thymidine) is 0.2 ratio to native VEGF (8-109)

// Endothelial Cell Proliferation Activity (HUVEC, 3H-thymidine) lookup, binder = LK-VRB-7s* (ligand, human, UniProt P15692-4 27-135, looked up) APMAEGGGQNHHEVVKFEDVYQRSYCHPIETLVDIFQEYPDEIEYIFKPSCVPLMRCGGCCNSEMRECVPTEESNITMQIMRIKPHQGQHIGEMSFLQHNKCECRPKKD , result: 1 ratio to native VEGF (8-109)

Entry LK-VRB-2f (ligand, human, UniProt P15692-4 27-191, looked up) APMAEGGGQNHHEVVKFMDVYQRSYCHPIETLVDIFQEYPDEIEYIFKPSCVPLMRCGGCCNSEMRECVPTEESNITMQIMRIKPHQGQHIGEMSFLQHNKCECRPKKDRARQENPCGPCSERRKHLFVQDPQTCKCSCKNTDSRCKARQLELNERTCRCDKPRR ; Endothelial Cell Proliferation Activity (HUVEC, 3H-thymidine) = 0.1 ratio to native VEGF (8-109)
